Below: a set of entries, each annotated with reported IC50, HVEM NF-κB luciferase reporter, free LIGHT.
- tested-on: T1, His-human LIGHT (human)
- T1 chain: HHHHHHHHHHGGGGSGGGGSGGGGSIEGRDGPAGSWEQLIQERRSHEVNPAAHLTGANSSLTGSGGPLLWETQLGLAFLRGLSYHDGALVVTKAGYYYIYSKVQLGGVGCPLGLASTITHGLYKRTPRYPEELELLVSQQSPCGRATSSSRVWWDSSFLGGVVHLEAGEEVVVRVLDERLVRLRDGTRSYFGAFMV
- assay-protocol: cell-based or functional assay
Value expressed in pM; do not type the unit.

Some solved cases for reference:
hum_LT-m37-16 (antibody, human IgG4, V domains shown, humanized from LT-m37) VH: QVQLVQSGAEVKKPGASVKVSCKASGYSFTGYFINWVRQAPGQGLEWIGRIYPYNVDTFYNQNFKGRVTMTADKSTSTAYMELSSLRSEDTAVYYCGRGTHYYGSSGAMDYWGQGTLVTVSS VL: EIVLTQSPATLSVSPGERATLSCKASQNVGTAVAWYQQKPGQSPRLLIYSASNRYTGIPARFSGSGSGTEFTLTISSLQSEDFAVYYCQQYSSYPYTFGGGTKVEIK = 179
hum_LT-m37-14 (antibody, human IgG4, V domains shown, humanized from LT-m37) VH: QVQLVQSGAEVKKPGASVKVSCKASGYSFTGYFINWVRQAPGQSLEWIGRIYPYNVDTFYNQNFKGRATLTADKSTSTAYMELSSLRSEDTAVYYCGRGTHYYGSSGAMDYWGQGTLVTVSS VL: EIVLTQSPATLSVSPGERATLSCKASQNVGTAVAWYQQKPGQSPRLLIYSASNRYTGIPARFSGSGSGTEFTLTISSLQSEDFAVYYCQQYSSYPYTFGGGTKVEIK = 161
hum_LT-m37-15 (antibody, human IgG4, V domains shown, humanized from LT-m37) VH: QVQLVQSGAEVKKPGASVKVSCKASGYSFTGYFINWVRQAPGQGLEWIGRIYPYNVDTFYNQNFKGRATMTADKSTSTAYMELSSLRSEDTAVYYCGRGTHYYGSSGAMDYWGQGTLVTVSS VL: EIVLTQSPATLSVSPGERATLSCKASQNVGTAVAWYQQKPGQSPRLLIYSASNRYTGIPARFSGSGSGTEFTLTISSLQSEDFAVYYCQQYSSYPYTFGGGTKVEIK = 120

Let us examine a further case.
Dear colleague, I am looking for the recorded IC50, HVEM NF-κB luciferase reporter, free LIGHT of the following binder: LT-m37 (antibody, human IgG4, V domains shown) VH: QVQLKQSGAELVRPGTSVKVSCKASGYSFTGYFINWVKQSHGKSLEWIGRIYPYNVNTFYNQNFKGRATLTADKSSSTAHMELLSLTSEDSAVYYCGRGTHYYGSSGAMDYWGQGTSVTVSS VL: DILLTQSHKFMSTSVGDRVSITCKASQNVGTAVAWYQQKPGQSPKLLIYSASNRYTGVPDRFTGSGSGTDFTLTISNMQSEDLADYFCQQYSSYPYTFGGGTKLEIK
402
